- testedTarget: T1, human corticotrophin releasing hormone receptor type 2 (CRHR2) (human, UniProt Q13324 1-411)
- T1 sequence (looked up): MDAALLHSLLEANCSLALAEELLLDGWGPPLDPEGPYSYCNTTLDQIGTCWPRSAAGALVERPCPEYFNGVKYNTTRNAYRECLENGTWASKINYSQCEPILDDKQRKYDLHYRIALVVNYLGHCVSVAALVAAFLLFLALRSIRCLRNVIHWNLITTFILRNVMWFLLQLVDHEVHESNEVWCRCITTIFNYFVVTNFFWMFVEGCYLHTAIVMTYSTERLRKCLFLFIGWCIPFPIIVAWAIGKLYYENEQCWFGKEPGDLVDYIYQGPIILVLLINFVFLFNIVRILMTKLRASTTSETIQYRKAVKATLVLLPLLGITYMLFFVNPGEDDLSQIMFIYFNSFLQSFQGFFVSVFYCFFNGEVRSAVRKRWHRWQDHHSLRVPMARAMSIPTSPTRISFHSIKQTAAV
- assayProtocol: cell-based or functional assay
Where no end group is shown, it is not given here.
# Lookup of reported pA50 keyed by entry

{"columns": ["binder", "pA50"],
 "data": [
  ["TKFTLSLDVPTNIMNLLFNIAKAKNLRAQAAANAHCMAQI-NH2 [Cys-variant stresscopin-like peptide SEQ ID NO: 37]", "8.58 -log10(M)"],
  ["TCFTLSLDVPTNIMNLLFNIAKAKNLRAQAAANAHLMAQI (NES-PEG (about 20 kDa) on Cys 2; C-terminal amide (-NH2)) [Pegylated Cys-variant stresscopin-like peptide with NES linker and PEG about 20 kDa SEQ ID NO: 56]", "~7.2 -log10(M)"],
  ["CKFTLSLDVPTNIMNLLFNIAKAKNLRAQAAANAHLMAQI (NES-PEG (about 20 kDa) on Cys 1; C-terminal amide (-NH2)) [Pegylated Cys-variant stresscopin-like peptide with NES linker and PEG about 20 kDa SEQ ID NO: 55]", "~7.93 -log10(M)"],
  ["TKFTLSLDVPTNIMNLLFNIAKAKNLRAQAACNAHLMAQI-NH2 [Cys-variant stresscopin-like peptide SEQ ID NO: 33]", "9.07 -log10(M)"],
  ["TKFTLSLDVPTNIMNLLFNIAKAKNLCAQAAANAHLMAQI-NH2 [Cys-variant stresscopin-like peptide SEQ ID NO: 28]", "9.36 -log10(M)"],
  ["TKFTLSLDVCTNIMNLLFNIAKAKNLRAQAAANAHLMAQI-NH2 [Cys-variant stresscopin-like peptide SEQ ID NO: 11]", "8.76 -log10(M)"]
]}
